target: human Serotonin, 5-Hydroxytryptamine Receptor 6 (5HT6), HTR6 (gene 3362) (UniProt P50406); test: NVS_GPCR_h5HT6: NovaScreen (NVS) G Protein-Coupled Receptor Assay for human Serotonin, 5-Hydroxytryptamine Receptor 6 (5HT6) (AID 2283253)
Sequence (P50406 whole entry, looked up): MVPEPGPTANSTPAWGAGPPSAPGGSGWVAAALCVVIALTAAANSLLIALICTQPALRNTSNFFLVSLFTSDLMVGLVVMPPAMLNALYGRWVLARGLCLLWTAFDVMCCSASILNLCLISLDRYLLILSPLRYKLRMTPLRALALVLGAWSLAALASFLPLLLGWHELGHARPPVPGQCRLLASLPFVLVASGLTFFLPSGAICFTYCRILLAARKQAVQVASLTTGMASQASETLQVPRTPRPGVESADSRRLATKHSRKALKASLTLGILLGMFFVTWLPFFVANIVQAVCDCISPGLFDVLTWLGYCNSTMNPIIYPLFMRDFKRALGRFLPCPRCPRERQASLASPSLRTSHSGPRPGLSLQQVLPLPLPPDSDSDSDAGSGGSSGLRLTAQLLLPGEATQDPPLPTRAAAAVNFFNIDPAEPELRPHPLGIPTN
Results filed as inconclusive are left out. Active and inactive are the calls of the source. The calls were made as follows: active = hit-call score of the fitted dose curve at least 0.9, where 1 is the maximum; inconclusive = response in the unintended direction; inactive = score below 0.9.
Parameter call: string, one of active, inactive

Req: Field: outcome | Entry: CCCCCCCCCC
Resp: inactive

Req: Field: outcome | Entry: COc1cc(C(C)C)c2c(c1)S(=O)(=O)N(COc1cc(=O)n3cccc(OCCN4CCCCC4)c3n1)C2=O
Resp: active

Req: Field: outcome | Entry: c1ccc(C(O[C@@H]2CCCN(CCc3ccc4c(c3)OCO4)C2)c2ccccc2)cc1
Resp: active

Req: Field: outcome | Entry: CCCCCCCCN(C)C
Resp: inactive

Req: Field: outcome | Entry: COCc1nnc(-c2ccc[n+]([O-])c2)n1-c1c(Cl)c(Cl)cc2[nH]c(=O)c(=O)[nH]c12
Resp: inactive

Req: Field: outcome | Entry: c1ccc2cc3ccccc3cc2c1
Resp: inactive

Req: Field: outcome | Entry: C=CCc1cc(S(=O)(=O)c2ccc(O)c(CC=C)c2)ccc1O
Resp: active
